Assay: in vivo
Details: mouse, iv, pH 7
Readout Type: LD50

Query: Reported LD50 for CN[C@@H]1[C@@H](O)[C@@H](O[C@@H]2[C@@H](O)[C@H](O[C@H]3O[C@H]([C@@H](C)NC)CC[C@H]3N)[C@@H](N)C[C@H]2N)OC[C@]1(C)O [Genta-C1, gentamicin C1, reference compound] : what is it?
Result: ~70 mg/kg

Query: Reported LD50 for CCN[C@@H]1C[C@H](N)[C@@H](O[C@H]2OC(CN)=CC[C@H]2N)[C@H](O)[C@H]1O[C@H]1OC[C@](C)(O)[C@H](NC)[C@H]1O [Netilmicin, netilmicin, reference compound] : what is it?
Result: 30 mg/kg

Query: Reported LD50 for NC[C@H]1O[C@H](O[C@@H]2[C@@H](N)C[C@@H](N)[C@H](O[C@H]3O[C@H](CO)[C@@H](O)[C@H](N)[C@H]3O)C2(F)F)[C@H](O)[C@@H](O)[C@@H]1O [Compound 5FF-KMA, 5-deoxy-5,5-difluorokanamycin A] : what is it?
Result: > 300 mg/kg

Query: Reported LD50 for NCC[C@H](O)C(=O)N[C@@H]1C[C@H](N)[C@@H](O[C@H]2O[C@H](CN)CC[C@H]2N)C(F)(F)[C@H]1O[C@H]1O[C@H](CO)[C@@H](O)[C@H](N)[C@H]1O [Compound 5FF-DKB-AHB] : what is it?
Result: ~200 mg/kg

Query: Reported LD50 for NC[C@H]1O[C@H](O[C@H]2[C@H](O)[C@@H](O[C@H]3O[C@H](CO)[C@@H](O)[C@H](N)[C@H]3O)[C@H](N)C[C@@H]2N)[C@H](N)C[C@@H]1O [TOB, 3'-deoxykanamycin B, reference compound] : what is it?
Result: ~80 mg/kg

---

Readout Type: MIC (µg/mL)
# number only, unit µg/mL dropped from output

Query: Find the measured MIC: item CN[C@@H]1[C@@H](O)[C@@H](O[C@H]2[C@H](N)C[C@H](N)[C@@H](O[C@H]3O[C@H](CN)CC[C@H]3N)C2(F)F)OC[C@]1(C)O , target or system Bacillus subtilis PCI219.
Result: 0.39

Query: Find the measured MIC: item NC[C@H]1O[C@H](O[C@@H]2[C@@H](N)C[C@@H](N)[C@H](O[C@H]3O[C@H](CO)[C@@H](O)[C@H](N)[C@H]3O)C2(F)F)[C@H](N)[C@@H](O)[C@@H]1O , target or system Bacillus subtilis PCI219.
Result: 0.39

Query: Find the measured MIC: item NCC[C@H](O)C(=O)N[C@@H]1C[C@H](N)[C@@H](O[C@H]2O[C@H](CN)[C@@H](O)[C@H](O)[C@H]2O)[C@H](O)[C@H]1O[C@H]1O[C@H](CO)[C@@H](O)[C@H](N)[C@H]1O [Amikacin, amikacin, reference compound] , target or system Bacillus subtilis PCI219.
Result: 0.39

---

Here's what we have: MIC numbers for Bacillus subtilis PCI219.

Query: Reported MIC for NCC[C@H](O)C(=O)N[C@@H]1C[C@H](N)[C@@H](O[C@H]2O[C@H](CN)CC[C@H]2N)[C@H](F)[C@H]1O[C@H]1O[C@H](CO)[C@@H](O)[C@H](N)[C@H]1O [Compound 5F-DKB-AHB, reference compound] : what is it?
Result: < 0.2 µg/mL

Query: Reported MIC for CN[C@@H]1[C@@H](O)[C@@H](O[C@@H]2[C@@H](O)[C@H](O[C@H]3O[C@H]([C@@H](C)NC)CC[C@H]3N)[C@@H](N)C[C@H]2N)OC[C@]1(C)O [Genta-C1, gentamicin C1, reference compound] : what is it?
Result: < 0.2 µg/mL

Query: Reported MIC for NC[C@@H]1CC[C@@H](N)[C@@H](O[C@H]2[C@H](O)[C@@H](O[C@H]3O[C@H](CO)[C@@H](O)[C@H](N)[C@H]3O)[C@H](N)C[C@@H]2N)O1 [DKB, 3',4'-dideoxy-kanamycin B, reference compound] : what is it?
Result: < 0.2 µg/mL
